The measurements presented in this section are drawn from patent US20120202690A1.

- Tested on: Amaranthus retroflexus (AMARE)
- protocol-description: Pre-emergence biological efficacy, glasshouse, 1000 g/ha, evaluated after 13 days (100=total damage to plant; 0=no damage to plant)
- Assay type: in vivo
- experimental-conditions: Amaranthus retroflexus, 312 h, rate 1,000 g/ha, read-out: Percentage damage caused to weed species, pre-emergence, AMARE
measurement-name: pest or weed control at 1000 g/ha (%)
Write down the numeric answer in % and omit the unit.

Task: What value of pest or weed control at 1000 g/ha has been reported for the following compound? CCCCCC(C)OC(=O)c1nc(-c2ccc(Cl)c(OC)c2F)nc2[nH]cc(C)c12 (stereo not drawn)
Output: 0

Task: Please report the recorded pest or weed control at 1000 g/ha for COc1c(Cl)ccc(-c2nc(C(=O)O)c3cc(C)[nH]c3n2)c1F .
Output: 0

Task: Quick one: pest or weed control at 1000 g/ha for CCOCn1cc(C)c2c(C(=O)O)nc(-c3ccc(Cl)c(OC)c3F)nc21 ?
Output: 100

Task: Name the recorded pest or weed control at 1000 g/ha for COC(=O)c1nc(-c2ccc(Cl)c(OC)c2F)nc2c1cc(C)n2CC1CC1 .
Output: 0

Task: Would you kindly share the measured pest or weed control at 1000 g/ha for COC(=O)c1nc(-c2ccc(Cl)c(F)c2)nc2c1ccn2Cc1ccco1 ?
Output: 0

Task: Any idea what its pest or weed control at 1000 g/ha is? The compound is COC(=O)c1nc(-c2ccc(Cl)c(OC)c2F)nc2c1cc(C)n2Cc1ccccc1
Output: 10

Task: Request the reported pest or weed control at 1000 g/ha associated with C=CCOC(=O)c1nc(-c2ccc(Cl)c(OC)c2F)cc2[nH]cc(C)c12
Output: 40

Task: Fill blank: measured pest or weed control at 1000 g/ha of the compound CCOC(=O)c1nc(-c2ccc(Cl)c(OC)c2F)cc2[nH]cc(C)c12 is ____.
Output: 70

Task: Please report the recorded pest or weed control at 1000 g/ha for COC(=O)c1nc(-c2ccc(Cl)c(OC)c2F)nc2[nH]c(C)cc12 .
Output: 100

Task: Recorded pest or weed control at 1000 g/ha of COC(=O)c1nc(C2CC2)nc2c1ccn2Cc1ccccc1[N+](=O)[O-] , please.
Output: 0

Task: Request the reported pest or weed control at 1000 g/ha associated with COC(=O)c1nc(-c2ccc(Cl)c(OC)c2F)nc2c1OCCN2C
Output: 0

Task: Sample COC(=O)c1nc(-c2ccc(Cl)c(OC)c2F)nc2ncccc12 — what was its pest or weed control at 1000 g/ha?
Output: 0

Task: Any idea what pest or weed control at 1000 g/ha was measured for COC(=O)c1nc(-c2ccc(Cl)c(OC)c2F)nc2[nH]cc(C)c12 ?
Output: 100

Task: For the compound shown here, CCOC(=O)c1nc(-c2ccc(Cl)c(OC)c2F)nc2[nH]cc(C)c12 , give the reported pest or weed control at 1000 g/ha.
Output: 0

Task: # query: pest or weed control at 1000 g/ha of entry COC(=O)c1nc(-c2ccc(Cl)c(F)c2)nc2[nH]c(C)c(C)c12
Output: 0

Task: Look up pest or weed control at 1000 g/ha for this compound: COC(=O)c1nc(-c2ccc(Cl)c(F)c2)nc2c1ccn2Cc1ccccc1[N+](=O)[O-]
Output: 0

Task: Record request: pest or weed control at 1000 g/ha value, item COC(=O)c1nc(-c2ccc(Cl)c(OC)c2F)nc2c1N(Cc1ccccc1)C(C)N2Cc1ccccc1 (stereo not drawn)
Output: 0

Task: So what does the record say about pest or weed control at 1000 g/ha for COC(=O)c1nc(-c2ccc(Cl)c(OC)c2F)nc2c1N(Cc1ccccc1)CCN2Cc1ccccc1 ?
Output: 0

Task: Which pest or weed control at 1000 g/ha is reported for this compound? COc1c(Cl)ccc(-c2nc(C(=O)OCC3CCCO3)c3c(C)c[nH]c3n2)c1F (stereo not drawn)
Output: 10

Task: # input compound: COC(=O)c1nc(-c2ccc(Cl)c(F)c2)cc2[nH]cc(C)c12 ; wanted: its pest or weed control at 1000 g/ha
Output: 100

Task: Data request, read-out pest or weed control at 1000 g/ha, for COc1c(Cl)ccc(-c2nc3c(c(C(=O)O)n2)N[C@@H]2CCCC[C@H]2N3)c1F
Output: 20

Task: Quick one: pest or weed control at 1000 g/ha for COC(=O)c1nc(C2CC2)nc2c1NC(c1ccccc1)C(c1ccccc1)N2 (stereo not drawn) ?
Output: 70

Task: Give the measured pest or weed control at 1000 g/ha of COc1c(Cl)ccc(-c2nc(C(=O)O)c3c(C)cn(Cc4ccc(C(F)(F)F)o4)c3n2)c1F .
Output: 60

Task: Name the reported pest or weed control at 1000 g/ha value associated with the compound COC(=O)c1nc(-c2ccc(Cl)c(OC)c2F)nc2c1c(C)cn2Cc1ccccc1
Output: 50

Task: Which pest or weed control at 1000 g/ha value belongs to COC(=O)c1nc(-c2ccc(Cl)c(OC)c2F)nc2c1N(C(C)C)CCN2C(C)C ?
Output: 0

Task: Bench note: what pest or weed control at 1000 g/ha did COC(=O)c1nc(Cl)nc2c1cc(C)n2Cc1ccco1 show?
Output: 0

Task: Return reported pest or weed control at 1000 g/ha; argument: COc1c(Cl)ccc(-c2cc3[nH]cc(C)c3c(C(=O)OCC3CCCO3)n2)c1F (stereo not drawn)
Output: 100

Task: Which pest or weed control at 1000 g/ha is listed for COC(=O)c1nc(C2CC2)nc2[nH]cc(C)c12 ?
Output: 90

Task: What measured pest or weed control at 1000 g/ha goes with COc1c(Cl)ccc(-c2nc(C(=O)O)c3c(C)cn(Cc4ccc(F)cc4)c3n2)c1F ?
Output: 20

Task: For COC(=O)c1nc(-c2ccc(Cl)c(OC)c2F)nc2c1c(C)cn2S(C)(=O)=O , what is its reported pest or weed control at 1000 g/ha?
Output: 0
